test: Oral bioavailability in mice, Method B; format: in vivo; conditions: male, mouse; brain, CD-1 mice, 10 mg/kg po, Method B; read-out: t1/2 (po)
Below, each entry is listed alongside its reported half-life.
Number in h, nothing else.

> print(dat)
                                   compound  assay.value
1  Cc1ccccc1[C@]1(N)CCCCC1=O [Compound 114R, (R)-2-amino-2-(o-tolyl)cyclohexan-1-one]         1.12
2  N[C@@]1(c2ccccc2)CCCCC1=O [Compound 11R, (R)-2-amino-2-phenyl-cyclohexan-1-one]          1.9
3  CN[C@]1(c2cccc(F)c2)CCCCC1=O [Compound 19S]         2.35

Moving on to another compound below.
Measured half-life, [2H]C([2H])([2H])N[C@@]1(c2ccccc2)CCCCC1=O [Compound 88R] : 1.33

* * *

experiment: HLM stability (High Activity); format: in vitro ADME; details: both sexes, human, liver microsomes, pH 7.4, Condition 2 (High Activity), 1.0 mg protein/mL
Dear colleague, classification is by microsomal CLint at 1 μM, with ranges listed here: lower (below 4 µL/min/mg), middle (4 µL/min/mg to below 10 µL/min/mg), upper (10 µL/min/mg or more)

> print(dat)
                                   compound  assigned.class
1  O=C1CCCC[C@]1(c1ccccc1)N1CCCCC1 [Compound 26R]           upper
2         CNC1(c2ccccc2F)CCCCC1=O (racemic)          middle

-- ask // return the class label for O=C1CCCC[C@@]1(c1ccccc1)N1CCCCC1 [Compound 26S]
-- reply middle

-- ask Into which bin does this compound go? N[C@@]1(c2ccccc2)CCCCC1=O [Compound 11R, (R)-2-amino-2-phenyl-cyclohexan-1-one]
-- reply lower

-- ask Input NC1(c2ccccc2)CCCCC1=O (racemic) ; output its category
-- reply lower

-- ask Determine which band this compound sits in: CN[C@@]1(c2ccccc2C)CCCCC1=O [Compound 38R]
-- reply middle

-- ask Sort O=C1CCCC[C@]1(NCCO)c1ccccc1 [Compound 30S] into one of the categories.
-- reply upper

-- ask Which category does the recorded microsomal CLint at 1 μM put O=C1CCCC[C@@]1(NCCO)c1ccccc1 [Compound 30R] in?
-- reply upper

* * *

Target: norepinephrine transporter (NET) (Homo sapiens, UniProt P23975)
Construct: expressed in transfected cells; host or cells: HEK293
Sequence (P23975 whole entry, species assumed): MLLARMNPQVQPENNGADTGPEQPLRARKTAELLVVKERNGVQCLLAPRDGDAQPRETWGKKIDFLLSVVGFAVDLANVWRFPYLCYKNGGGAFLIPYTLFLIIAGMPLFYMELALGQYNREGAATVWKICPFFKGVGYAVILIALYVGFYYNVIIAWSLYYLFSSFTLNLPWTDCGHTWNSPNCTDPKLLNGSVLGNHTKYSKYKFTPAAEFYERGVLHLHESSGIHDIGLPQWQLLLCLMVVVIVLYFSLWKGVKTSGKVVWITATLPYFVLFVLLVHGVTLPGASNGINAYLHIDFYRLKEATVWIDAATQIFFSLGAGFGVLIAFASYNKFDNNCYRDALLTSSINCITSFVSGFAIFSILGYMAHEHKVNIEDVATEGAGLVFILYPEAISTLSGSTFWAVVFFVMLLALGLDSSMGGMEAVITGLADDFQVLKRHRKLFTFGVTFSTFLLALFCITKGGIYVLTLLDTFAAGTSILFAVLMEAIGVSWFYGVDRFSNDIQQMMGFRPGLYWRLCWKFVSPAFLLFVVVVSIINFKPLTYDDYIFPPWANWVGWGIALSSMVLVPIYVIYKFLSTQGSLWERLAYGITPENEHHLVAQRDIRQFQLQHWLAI
Experiment: Fluorescent substrate uptake inhibition, NET
Type: cell-based
Details: 10 μM, HEK293 cells expressing NET
Protocol: Uptake Inhibition. The ability of test compounds to block monoamine uptake by SERT, NET, DAT, and VMAT2 was determined using the Neurotransmitter Transporter Uptake Assay Kit manufactured by Molecular Devices (Cat #R8173). […] At this time, 25 μL of the proprietary fluorescent dye solution was added, the plates were incubated at 37° C. for 60 minutes, and then fluorescence was quantified on a plate reader (excitation wavelength=440 nm, emission wavelength=520 nm). […]
# if value of inhibition at 10 µM reaches 10%, tag class 1; if it stays below, tag class 0

> print(dat)
                                   compound  assigned.class
1  O=C1CCCC[C@]1(NCCF)c1ccccc1 [Compound 86S]         class 1
2  O=C1CCCC[C@]1(c1ccccc1)N1CCC1 [Compound 84R]         class 1
3  O=C1CCCC[C@@]1(c1ccccc1)N1CCC1 [Compound 84S]         class 1
4  COCCN[C@@]1(c2ccccc2)CCCCC1=O [Compound 29R]         class 0
5        Cc1ccc(C2(N)CCCCC2=O)cc1 (racemic)         class 0

-- ask Determine whether measured inhibition at 10 µM meets or exceeds 10% for CNC1(c2ccc(F)cc2)CCCCC1=O (racemic)
-- reply class 1

-- ask inhibition at 10 µM >= 10% for O=C1CCCCC1(c1ccccc1)N1CCCC1 (racemic) ?
-- reply class 1

-- ask In plain terms: is recorded inhibition at 10 µM at least 10% for CCN(CC)[C@]1(c2ccccc2)CCCCC1=O [Compound 25S] ?
-- reply class 0

-- ask I'd appreciate it if you could say whether CNC1(c2cccc(C)c2)CCCCC1=O (racemic) has inhibition at 10 µM at least equal to 10%.
-- reply class 0

-- ask Reported inhibition at 10 µM at or above 10%? CC1CCN1C1(c2ccccc2)CCCCC1=O (stereo not shown) [Compound 128mix]
-- reply class 0
